experimental.system: DRB1*1501 (Homo sapiens, UniProt P01903+P01911)
assay: biochemical
Assay type: binding
parameter: IC50 (nM)
Express the result in nM but write the number alone.

IC50 on DRB1*1501 (Homo sapiens, UniProt P01903+P01911) for CC(C)C[C@H](NC(=O)[C@@H](NC(=O)[C@H](Cc1c[nH]c2ccccc12)NC(=O)[C@H](CC(=O)O)NC(=O)[C@H](CCC(=O)O)NC(=O)[C@@H](NC(=O)[C@H](CCCCN)NC(=O)[C@H](Cc1ccc(O)cc1)NC(=O)[C@H](CCCNC(=N)N)NC(=O)[C@H](CO)NC(=O)[C@@H](N)CCC(N)=O)[C@@H](C)O)[C@@H](C)O)C(=O)N[C@@H](CCC(N)=O)C(=O)N[C@@H](CC(=O)O)C(=O)N[C@H](C(=O)N[C@@H](CS)C(=O)O)[C@@H](C)O [Peptide 90.0179] is 345
